TARGET_SYSTEM: Wee1-like protein kinase (Homo sapiens)
Sequence (P30291 whole entry): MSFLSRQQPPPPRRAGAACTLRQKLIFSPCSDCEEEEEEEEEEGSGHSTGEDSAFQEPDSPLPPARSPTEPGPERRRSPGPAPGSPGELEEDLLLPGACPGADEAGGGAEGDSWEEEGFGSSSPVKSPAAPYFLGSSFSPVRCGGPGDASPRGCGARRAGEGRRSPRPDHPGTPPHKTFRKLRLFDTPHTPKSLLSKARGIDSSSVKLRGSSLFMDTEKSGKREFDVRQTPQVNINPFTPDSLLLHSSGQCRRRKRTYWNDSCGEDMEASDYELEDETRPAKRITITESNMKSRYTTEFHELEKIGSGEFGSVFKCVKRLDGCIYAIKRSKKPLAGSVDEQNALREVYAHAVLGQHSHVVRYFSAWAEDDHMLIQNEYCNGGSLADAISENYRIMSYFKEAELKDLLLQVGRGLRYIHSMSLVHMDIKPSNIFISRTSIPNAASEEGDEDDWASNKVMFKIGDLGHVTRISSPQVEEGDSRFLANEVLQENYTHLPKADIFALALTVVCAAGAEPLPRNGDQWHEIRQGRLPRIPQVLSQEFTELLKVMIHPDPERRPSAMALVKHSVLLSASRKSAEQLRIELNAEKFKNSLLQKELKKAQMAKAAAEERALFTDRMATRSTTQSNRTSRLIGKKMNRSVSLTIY
OUTCOME_MEASURE: IC50

Problem: Provide IC50 value for the following compound: CC(C)Cc1cc(Nc2ncc(C#N)c(Nc3cccc(N=S(C)(C)=O)n3)n2)cc2c1CCN(C)C2
Solution: < 10 nM
